Test: In vitro plasma half-life
Format: in vitro ADME
Details: mouse, plasma, murine plasma, read-out: Plasma T1/2 (converted)
The following compounds are listed with their measured half-life at 2 μM values.

compound	half-life at 2 μM / min
COc1ccc(-c2n(CC(=O)OC3C[C@H](C)CC[C@H]3C(C)C)c3ccccc3[n+]2C)cc1.[I-] (stereo partly drawn)	15
CC(C)[C@@H]1CC[C@@H](C)CC1OC(=O)Cn1c(-c2ccc(O)cc2)[n+](C)c2ccccc21.[I-] (stereo partly drawn)	9.8
CC(C)[C@@H]1CC[C@@H](C)CC1OC(=O)Cn1c(-c2ccc([N+](=O)[O-])cc2)[n+](C)c2ccccc21.[I-] (stereo partly drawn)	90
Cc1ccccc1-c1n(CC(=O)OC2C[C@H](C)CC[C@H]2C(C)C)c2ccccc2[n+]1C.[I-] (stereo partly drawn)	73
CC(C)[C@@H]1CC[C@@H](C)CC1OC(=O)Cn1c(-c2cccc(F)c2)[n+](C)c2ccccc21.[I-] (stereo partly drawn)	11
CCc1n(CC(=O)O[C@@H]2C[C@H](C)CC[C@H]2C(C)C)c2ccccc2[n+]1C.[Cl-]	4
CC(C)[C@@H]1CC[C@@H](C)CC1OC(=O)Cn1c(-c2ccc(N(C)C)cc2)[n+](C)c2ccccc21.[I-] (stereo partly drawn)	8
CC(C)[C@@H]1CC[C@@H](C)CC1OC(=O)Cn1c(-c2cc(Cl)cc(Cl)c2)[n+](C)c2ccccc21.[I-] (stereo partly drawn)	39
Cc1ccc(-c2n(CC(=O)OC3C[C@H](C)CC[C@H]3C(C)C)c3ccccc3[n+]2C)cc1.[I-] (stereo partly drawn)	24

###

Listed below: Buffer Stability values for each entry.
Experiment: Buffer (saline) stability
Assay type: physicochemical

compound	endpoint-unit	Buffer Stability
CC(C)[C@@H]1CC[C@@H](C)CC1OC(=O)Cn1c(-c2cc(Cl)cc(Cl)c2)[n+](C)c2ccccc21.[I-] (stereo partly shown)	%	91
Cc1ccc(-c2n(CC(=O)OC3C[C@H](C)CC[C@H]3C(C)C)c3ccccc3[n+]2C)cc1.[I-] (stereo partly shown)	%	95
CC(C)[C@@H]1CC[C@@H](C)CC1OC(=O)Cn1c(-c2ccc([N+](=O)[O-])cc2)[n+](C)c2ccccc21.[I-] (stereo partly shown)	%	100
CC(C)[C@@H]1CC[C@@H](C)CC1OC(=O)Cn1c(-c2ccc(N=[N+]=[N-])cc2)[n+](C)c2ccccc21.[I-] (stereo partly shown)	%	96
CC(C)[C@@H]1CC[C@@H](C)CC1OC(=O)Cn1c(-c2ccc(N(C)C)cc2)[n+](C)c2ccccc21.[I-] (stereo partly shown)	%	9
CC(C)[C@@H]1CC[C@@H](C)CC1OC(=O)Cn1c(-c2cccc([N+](=O)[O-])c2)[n+](C)c2ccccc21.[I-] (stereo partly shown)	%	133
Cc1ccccc1-c1n(CC(=O)OC2C[C@H](C)CC[C@H]2C(C)C)c2ccccc2[n+]1C.[I-] (stereo partly shown)	%	100
CSc1ccc(-c2n(CC(=O)OC3C[C@H](C)CC[C@H]3C(C)C)c3ccccc3[n+]2C)cc1.[I-] (stereo partly shown)	%	100
CC(C)[C@@H]1CC[C@@H](C)CC1OC(=O)Cn1c(-c2ccccc2)[n+](C)c2ccccc21.[I-] (stereo partly shown)	%	97
CC(C)[C@@H]1CC[C@@H](C)CC1OC(=O)Cn1c(-c2ccccc2[N+](=O)[O-])[n+](C)c2ccccc21.[I-] (stereo partly shown)	%	100
CC(C)[C@@H]1CC[C@@H](C)CC1OC(=O)Cn1c(-c2cccc(F)c2)[n+](C)c2ccccc21.[I-] (stereo partly shown)	%	100
CCc1n(CC(=O)O[C@@H]2C[C@H](C)CC[C@H]2C(C)C)c2ccccc2[n+]1C.[Cl-]	%	100
CC(C)[C@@H]1CC[C@@H](C)CC1OC(=O)Cn1c(-c2cccc(Br)c2)[n+](C)c2ccccc21.[I-] (stereo partly shown)	%	94
CC(C)[C@@H]1CC[C@@H](C)CC1OC(=O)Cn1c(-c2ccc(O)cc2)[n+](C)c2ccccc21.[I-] (stereo partly shown)	%	114
COc1ccc(-c2n(CC(=O)OC3C[C@H](C)CC[C@H]3C(C)C)c3ccccc3[n+]2C)cc1.[I-] (stereo partly shown)	%	100
CC(C)[C@@H]1CC[C@@H](C)CC1OC(=O)Cn1c(-c2cccc(C(F)(F)F)c2)[n+](C)c2ccccc21.[I-] (stereo partly shown)	%	100

###

Test: In vitro plasma half-life
Type: in vitro ADME
Settings: mouse, plasma, murine plasma, read-out: Plasma T1/2 (converted)
Measured log10 of half-life at 2 μM, listed per entry.
measurement-name: log10 of half-life at 2 μM (log10 of the value in min)

molecule	measurement-name	test-value
CC(C)[C@@H]1CC[C@@H](C)CC1OC(=O)Cn1c(-c2cccc(Br)c2)[n+](C)c2ccccc21.[I-] (stereo partly shown)	log10 of half-life at 2 μM	1.46
CC(C)[C@@H]1CC[C@@H](C)CC1OC(=O)Cn1c(-c2ccccc2)[n+](C)c2ccccc21.[I-] (stereo partly shown)	log10 of half-life at 2 μM	1.03
CC(C)[C@@H]1CC[C@@H](C)CC1OC(=O)Cn1c(-c2cccc(C(F)(F)F)c2)[n+](C)c2ccccc21.[I-] (stereo partly shown)	log10 of half-life at 2 μM	2.38
CC(C)[C@@H]1CC[C@@H](C)CC1OC(=O)Cn1c(-c2ccc(N=[N+]=[N-])cc2)[n+](C)c2ccccc21.[I-] (stereo partly shown)	log10 of half-life at 2 μM	1.41
CSc1ccc(-c2n(CC(=O)OC3C[C@H](C)CC[C@H]3C(C)C)c3ccccc3[n+]2C)cc1.[I-] (stereo partly shown)	log10 of half-life at 2 μM	1.00
CC(C)[C@@H]1CC[C@@H](C)CC1OC(=O)Cn1c(-c2cccc([N+](=O)[O-])c2)[n+](C)c2ccccc21.[I-] (stereo partly shown)	log10 of half-life at 2 μM	2.52
CC(C)[C@@H]1CC[C@@H](C)CC1OC(=O)Cn1c(-c2ccccc2[N+](=O)[O-])[n+](C)c2ccccc21.[I-] (stereo partly shown)	log10 of half-life at 2 μM	1.67

###

Assay: Hepatocyte half-life
Assay type: in vitro ADME
Conditions: hepatocytes; in vitro; read-out: hepatocyte T1/2
measurement-name: half-life (h)

substance-smiles	endpoint-unit	test-value
CCc1n(CC(=O)O[C@@H]2C[C@H](C)CC[C@H]2C(C)C)c2ccccc2[n+]1C.[Cl-]	h	4.28

###

Reported half-life values follow for various molecules
Test: Murine S9 half-life
Assay type: in vitro ADME
Settings: mouse, S9 fraction; murine S9, Phase I cofactors; read-out: S9 T1/2
Method: 22D. […] (2 mM in DMSO) was incubated with Murine S9 (Lot KWB) fraction and Phase I (NADPH Regenerating System) cofactors for 0-240 minutes. Reactions were quenched with 1 mL (1:1) of methanol containing 0.2% formic acid and 100 ng/ml IS (IS final conc.=50 ng/mL). Samples were vortexed for 15 seconds, incubated at RT for 10 minutes and spun for 5 minutes at 2400 rpm. […] Analyzed by Qtrap 3200 mass spectrometer. […]

molecule	bound-type	half-life [h]
CC(C)[C@@H]1CC[C@@H](C)CC1OC(=O)Cn1c(-c2ccc([N+](=O)[O-])cc2)[n+](C)c2ccccc21.[I-] (stereo partly drawn)	=	2.32
CC(C)[C@@H]1CC[C@@H](C)CC1OC(=O)Cn1c(-c2cccc(C(F)(F)F)c2)[n+](C)c2ccccc21.[I-] (stereo partly drawn)	>	4
CC(C)[C@@H]1CC[C@@H](C)CC1OC(=O)Cn1c(-c2ccc(O)cc2)[n+](C)c2ccccc21.[I-] (stereo partly drawn)	=	2.22
CC(C)[C@@H]1CC[C@@H](C)CC1OC(=O)Cn1c(-c2ccc(N=[N+]=[N-])cc2)[n+](C)c2ccccc21.[I-] (stereo partly drawn)	=	0.433
CC(C)[C@@H]1CC[C@@H](C)CC1OC(=O)Cn1c(-c2cccc([N+](=O)[O-])c2)[n+](C)c2ccccc21.[I-] (stereo partly drawn)	>	4
CC(C)[C@@H]1CC[C@@H](C)CC1OC(=O)Cn1c(-c2ccccc2[N+](=O)[O-])[n+](C)c2ccccc21.[I-] (stereo partly drawn)	>	4
